run.description: PROTAC subcutaneous pharmacokinetics in CD-1 mice
Type: in vivo
assay.conditions: male, plasma; CD-1 Mouse, 10 mg/kg SC dose, vehicle ELP-1; read-out: Plasma Exposure AUC0-24
measurement.label: AUC(0-t) (ng·h/mL)
Numbers only, in ng·h/mL.

| smiles.representation | reading.unit | number |
| --- | --- | --- |
| Cc1ncsc1-c1ccc(CNC(=O)[C@@H]2C[C@@H](O)CN2C(=O)[C@@H](NC(=O)COCCCOCCN2CCC(c3ccc(N4C(=S)N(c5ccc(C#N)c(C(F)(F)F)c5)C(=O)C4(C)C)cc3)CC2)C(C)(C)C)cc1 | ng·h/mL | 2530 |

Now consider a different compound.
According to the records, this compound `Cc1ncsc1-c1ccc(CNC(=O)[C@@H]2C[C@@H](O)CN2C(=O)[C@@H](NC(=O)COCCOc2ccc(-c3ccc(C(=O)N[C@H]4C(C)(C)[C@H](Oc5ccc(C#N)c(Cl)c5)C4(C)C)cc3)cc2)C(C)(C)C)cc1` displays AUC(0-t) of 29200

====

assayed.system: Androgen Receptor (Homo sapiens, UniProt P10275+P40337, T878A)
Construct: Compounds have been evaluated in this assay in LNCaP and/or VCaP cells utilizing similar protocols; endogenous in cells; host or cells: LNCaP cells
Sequence (P10275 whole entry T878A): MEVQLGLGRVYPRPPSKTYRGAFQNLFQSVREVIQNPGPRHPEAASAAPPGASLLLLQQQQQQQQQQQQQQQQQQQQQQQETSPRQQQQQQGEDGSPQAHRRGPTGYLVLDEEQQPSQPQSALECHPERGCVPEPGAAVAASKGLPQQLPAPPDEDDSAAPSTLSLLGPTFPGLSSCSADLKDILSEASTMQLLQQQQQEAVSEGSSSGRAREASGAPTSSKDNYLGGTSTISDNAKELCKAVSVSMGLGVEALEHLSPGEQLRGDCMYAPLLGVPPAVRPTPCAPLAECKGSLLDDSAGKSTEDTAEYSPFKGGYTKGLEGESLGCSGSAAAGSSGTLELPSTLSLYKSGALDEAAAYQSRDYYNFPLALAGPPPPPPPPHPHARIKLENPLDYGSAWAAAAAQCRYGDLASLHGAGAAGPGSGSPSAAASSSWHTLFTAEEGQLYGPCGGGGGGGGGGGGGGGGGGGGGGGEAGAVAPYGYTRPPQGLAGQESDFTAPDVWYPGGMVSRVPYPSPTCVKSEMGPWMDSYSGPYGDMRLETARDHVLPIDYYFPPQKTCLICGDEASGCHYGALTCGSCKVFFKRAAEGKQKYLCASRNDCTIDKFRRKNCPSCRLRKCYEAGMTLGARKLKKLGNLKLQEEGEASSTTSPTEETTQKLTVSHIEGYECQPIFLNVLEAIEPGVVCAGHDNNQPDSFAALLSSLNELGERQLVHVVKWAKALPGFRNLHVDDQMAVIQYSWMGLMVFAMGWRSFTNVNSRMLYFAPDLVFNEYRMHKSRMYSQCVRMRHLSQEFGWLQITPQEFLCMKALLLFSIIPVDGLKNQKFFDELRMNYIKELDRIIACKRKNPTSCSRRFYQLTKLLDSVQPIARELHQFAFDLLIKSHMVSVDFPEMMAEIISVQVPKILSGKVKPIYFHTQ
Sequence (P40337 whole entry): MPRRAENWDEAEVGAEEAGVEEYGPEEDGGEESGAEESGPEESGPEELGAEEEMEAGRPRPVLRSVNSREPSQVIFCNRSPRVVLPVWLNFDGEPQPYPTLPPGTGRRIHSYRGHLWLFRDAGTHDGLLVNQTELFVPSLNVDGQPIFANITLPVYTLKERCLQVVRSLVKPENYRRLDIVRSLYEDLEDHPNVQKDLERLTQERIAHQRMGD
Sequence (Q15369 whole entry partner): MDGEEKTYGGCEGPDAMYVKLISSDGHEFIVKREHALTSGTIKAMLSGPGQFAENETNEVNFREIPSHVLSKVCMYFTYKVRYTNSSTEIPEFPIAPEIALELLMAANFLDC
Sequence (Q15370 whole entry partner): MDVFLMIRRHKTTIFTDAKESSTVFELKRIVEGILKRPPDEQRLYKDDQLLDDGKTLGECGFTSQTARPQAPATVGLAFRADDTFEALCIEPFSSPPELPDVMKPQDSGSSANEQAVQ
run.description: Androgen Receptor ELISA assay (PathScan AR ELISA) in LNCaP cells: AR degradation, Dmax and DC50
Type: cell-based
assay.conditions: highest percentage of Androgen Receptor degradation
measurement.label: Dmax

Some solved entries appear below for comparison.
| molecule | result |
| --- | --- |
| Cc1ncsc1-c1ccc(CNC(=O)[C@@H]2C[C@@H](O)CN2C(=O)[C@@H](NC(=O)c2ccc(OCCOc3ccc(-c4ccc(N5C(=S)N(c6ccc(C#N)c(C(F)(F)F)c6)C(=O)C5(C)C)cc4)cc3)cc2)C(C)(C)C)cc1 [Example 286] | 51 to 70% |
| Cc1ncsc1-c1ccc(CNC(=O)[C@@H]2C[C@@H](O)CN2C(=O)[C@@H](NC(=O)COCCOCCCCOCCCCOCCOCCOc2ccc(N3C(=S)N(c4ccc(C#N)c(C(F)(F)F)c4)C(=O)C3(C)C)cc2)C(C)(C)C)cc1 [Example 223] | 26 to 50% |
| Cc1ncsc1-c1ccc(CNC(=O)[C@@H]2C[C@@H](O)CN2C(=O)[C@@H](NC(=O)CCCOCCCOCCCOc2ccc(N3C(=S)N(c4ccc(C#N)c(C(F)(F)F)c4)C(=O)C3(C)C)cc2)C(C)(C)C)cc1 [Example 301] | 51 to 70% |
| Cc1ncsc1-c1ccc(CNC(=O)[C@@H]2C[C@@H](O)CN2C(=O)[C@H](C(C)C)N2Cc3ccccc3C2=O)c(OCCCOc2ccc(N3C(=S)N(c4ccc(C#N)c(C(F)(F)F)c4)C(=O)C3(C)C)cc2)c1 [Example 254] | 51 to 70% |
| Cc1ncsc1-c1ccc(CNC(=O)[C@@H]2C[C@@H](O)CN2C(=O)[C@H](C(C)C)N2Cc3cc(CCCOCCOc4ccc(N5C(=S)N(c6ccc(C#N)c(C(F)(F)F)c6)C(=O)C5(C)C)cc4)ccc3C2=O)cc1 [Example 248] | 26 to 50% |
| Cc1ncsc1-c1ccc(CNC(=O)[C@@H]2C[C@@H](O)CN2C(=O)[C@@H](NC(=O)CCCOCCN2CCC(c3ccc(N4C(=S)N(c5ccc(C#N)c(C(F)(F)F)c5)C(=O)C4(C)C)cc3)CC2)C(C)(C)C)cc1 [Example 309] | 26 to 50% |
| Cc1ncsc1-c1ccc(CNC(=O)[C@@H]2C[C@@H](O)CN2C(=O)[C@@H](NC(=O)CCOCCNC(=O)CCCc2ccc(N3C(=S)N(c4ccc(C#N)c(C(F)(F)F)c4)C(=O)C3(C)C)cc2)C(C)(C)C)cc1 [Example 232] | 26 to 50% |
| Cc1ncsc1-c1ccc(CNC(=O)[C@@H]2C[C@@H](O)CN2C(=O)[C@H](C(C)C)N2Cc3ccccc3C2=O)c(OCCOc2ccc(N3C(=S)N(c4ccc(C#N)c(C(F)(F)F)c4)C(=O)C3(C)C)cc2)c1 [Example 261] | < 25% |

Now consider a different molecule.
According to the records, this molecule Cc1ncsc1-c1ccc(CNC(=O)[C@@H]2C[C@@H](O)CN2C(=O)[C@@H](NC(=O)COCCCOC2CCN(C(=O)c3ccc(N4C(=S)N(c5ccc(C#N)c(C(F)(F)F)c5)C(=O)C4(C)C)cc3)CC2)C(C)(C)C)cc1 [Example 290] displays Dmax of 51 to 70%

====

assayed.system: Androgen Receptor (Homo sapiens, UniProt P10275+P40337, T878A)
Construct: Compounds have been evaluated in this assay in LNCaP and/or VCaP cells utilizing similar protocols; endogenous in cells; host or cells: LNCaP cells
run.description: Androgen Receptor ELISA assay (PathScan AR ELISA) in LNCaP cells: AR degradation, Dmax and DC50
Assay type: cell-based
assay.conditions: highest percentage of Androgen Receptor degradation observed
measurement.label: Dmax

Some solved entries appear below for comparison.
| smiles.representation | result |
| --- | --- |
| Cc1ncsc1-c1ccc(CNC(=O)[C@@H]2C[C@@H](O)CN2C(=O)[C@@H](NC(=O)COCCCCOCCCCOc2ccc(N3C(=S)N(c4ccc(C#N)c(C(F)(F)F)c4)C(=O)C3(C)C)cc2)C(C)(C)C)cc1 | > 71% |
| Cc1cc(N2C(=O)C(C)(C)N(c3ccc(OCCCCCOCCCOCC(=O)N[C@H](C(=O)N4C[C@H](O)C[C@H]4C(=O)NCc4ccc(-c5scnc5C)cc4)C(C)(C)C)cc3)C2=S)ccc1C#N | > 71% |
| Cc1ncsc1-c1ccc(CNC(=O)[C@@H]2C[C@@H](O)CN2C(=O)[C@@H](NC(=O)COCCCCOCCN2CCC(c3ccc(N4C(=S)N(c5ccc(C#N)c(C(F)(F)F)c5)C(=O)C4(C)C)cc3)CC2)C(C)(C)C)cc1 | 51 to 70% |
| Cc1ncsc1-c1ccc(CNC(=O)[C@@H]2C[C@@H](O)CN2C(=O)[C@@H](NC(=O)COCCOCCOCCOc2ccc(N3C(=S)N(c4ccc(C#N)c(C(F)(F)F)c4)C(=O)C3(C)C)cc2F)C(C)(C)C)cc1 | 51 to 70% |
| Cc1ncsc1-c1ccc(CNC(=O)[C@@H]2C[C@@H](O)CN2C(=O)[C@@H](NC(=O)OCCOCCOc2ccc(-c3ccc(N4C(=S)N(c5ccc(C#N)c(C(F)(F)F)c5)C(=O)C4(C)C)cc3)cc2)C(C)(C)C)cc1 | 51 to 70% |
| Cc1ncsc1-c1ccc(CNC(=O)[C@@H]2C[C@@H](O)CN2C(=O)[C@@H](NC(=O)CCOCCOc2ccc(-c3ccc(N4C(=S)N(c5ccc(C#N)c(C(F)(F)F)c5)C(=O)C4(C)C)cc3)cc2)C(C)(C)C)cc1 | > 71% |
| Cc1ncsc1-c1ccc(CNC(=O)[C@@H]2C[C@@H](O)CN2C(=O)[C@@H](NC(=O)COCCCOCCN2CCC(c3ccc(N4C(=S)N(c5ccc(C#N)c(C(F)(F)F)c5)C(=O)C4(C)C)cc3)CC2)C(C)(C)C)cc1 | 51 to 70% |
| Cc1ncsc1-c1ccc([C@H](C)NC(=O)[C@@H]2C[C@@H](O)CN2C(=O)[C@@H](NC(=O)COCCCOCCCCCOc2ccc(N3C(=S)N(c4ccc(C#N)c(C(F)(F)F)c4)C(=O)C3(C)C)cc2F)C(C)(C)C)cc1 | > 71% |
| Cc1ncsc1-c1ccc([C@H](C)NC(=O)[C@@H]2C[C@@H](O)CN2C(=O)[C@@H](NC(=O)COCCOCCOCCOc2ccc(N3C(=S)N(c4ccc(C#N)c(C(F)(F)F)c4)C(=O)C3(C)C)cc2)C(C)(C)C)cc1 | > 71% |
| Cc1ncsc1-c1ccc(CNC(=O)[C@@H]2C[C@@H](O)CN2C(=O)[C@H](C(C)C)N2Cc3cccc(C#N)c3C2=O)c(OCCOCCOCCOc2ccc(N3C(=S)N(c4ccc(C#N)c(C(F)(F)F)c4)C(=O)C3(C)C)cc2)c1 | 51 to 70% |

Hi there! I need Dmax for each item below, if you can.
1. Cc1ncsc1-c1ccc(CNC(=O)[C@@H]2C[C@@H](O)CN2C(=O)[C@@H](NC(=O)COCCCCCN(C)C(=O)CCCc2ccc(N3C(=S)N(c4ccc(C#N)c(C(F)(F)F)c4)C(=O)C3(C)C)cc2)C(C)(C)C)cc1
2. Cc1ncsc1-c1ccc(CNC(=O)[C@@H]2C[C@@H](O)CN2C(=O)[C@@H](NC(=O)COCCCOCCCCOc2ccc(N3C(=S)N(c4ccc(C#N)c(Cl)c4)C(=O)C3(C)C)cc2)C(C)(C)C)cc1
3. Cc1ncsc1-c1ccc(CNC(=O)[C@@H]2C[C@@H](O)CN2C(=O)[C@@H](NC(=O)COCCOc2ccc(-c3ccc(N4C(=S)N(c5ccc(C#N)c(C(F)(F)F)c5)C(=O)C4(C)C)cc3)cc2)C(C)(C)C)cc1
4. Cc1ncsc1-c1ccc(CNC(=O)[C@@H]2C[C@@H](O)CN2C(=O)[C@@H](NC(=O)COCCCOCCCCOc2ccc(N3C(=S)N(c4ccc(C#N)c(C(F)(F)F)c4)C(=O)C3(C)C)cc2)C(C)C)cc1
5. Cc1ncsc1-c1ccc(CNC(=O)[C@@H]2C[C@@H](O)CN2C(=O)[C@@H](NC(=O)COCCCOCCCCCOc2ccc(N3C(=S)N(c4ccc(C#N)c(F)c4)C(=O)C3(C)C)cc2)C(C)(C)C)cc1
6. Cc1ncsc1-c1ccc(CNC(=O)[C@@H]2C[C@@H](O)CN2C(=O)[C@@H](NC(=O)COCCCOc2ccc(-c3ccc(N4C(=S)N(c5ccc(C#N)c(C(F)(F)F)c5)C(=O)C4(C)C)cc3)cc2)C(C)(C)C)cc1
7. Cc1ncsc1-c1ccc(CNC(=O)[C@@H]2C[C@@H](O)CN2C(=O)[C@@H](NC(=O)OCCOCCOc2ccc(-c3ccc(N4C(=S)N(c5ccc(C#N)c(C(F)(F)F)c5)C(=O)C4(C)C)cc3F)cc2)C(C)(C)C)cc1

## Output
51 to 70%
> 71%
> 71%
51 to 70%
51 to 70%
> 71%
51 to 70%
